measurement target: MscCAγ (M. sciuri γ-CA) (Mammaliicoccus sciuri, UniProt A0AB37HNM1)
Construct: gene OWO77_11715
Sequence (A0AB37HNM1 1-169): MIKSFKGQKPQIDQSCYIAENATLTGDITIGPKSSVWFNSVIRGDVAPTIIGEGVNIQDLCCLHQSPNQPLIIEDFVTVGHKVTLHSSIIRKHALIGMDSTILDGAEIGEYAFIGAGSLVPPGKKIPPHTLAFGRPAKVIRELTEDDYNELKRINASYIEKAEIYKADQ
assay protocol: stopped-flow CO2 hydration assay, phenol red
Assay type: biochemical
test settings: read-out: KI (nM) ^a / MscCAγ
Below is a list of entries, each paired with its recorded Ki value.

>  <compound>
CC1(C)O[C@@H]2[C@@H](CO[C@@]3(COS(N)(=O)=O)OC(C)(C)O[C@@H]23)O1 [TPM]

>  <Ki (nM)>
578

$$$$
>  <compound>
O=C1NS(=O)(=O)c2ccccc21 [SAC]

>  <Ki (nM)>
29700

$$$$
>  <compound>
NS(=O)(=O)c1cc2c(cc1Cl)NCNS2(=O)=O [HCT]

>  <Ki (nM)>
18300

$$$$
>  <compound>
Cc1onc(-c2ccccc2)c1-c1ccc(S(N)(=O)=O)cc1 [VLX]

>  <Ki (nM)>
1540

$$$$
>  <compound>
Cc1ccc(-c2cc(C(F)(F)F)nn2-c2ccc(S(N)(=O)=O)cc2)cc1 [CLX]

>  <Ki (nM)>
3020

$$$$
>  <compound>
Nc1ccc(S(=O)(=O)Nc2ccc(S(N)(=O)=O)cc2)cc1 [compound 22, 22]

>  <Ki (nM)>
72.5

$$$$
>  <compound>
NS(=O)(=O)c1nnc(NS(=O)(=O)c2ccccc2)s1 [BZA]

>  <Ki (nM)>
444

$$$$
>  <compound>
NS(=O)(=O)c1ccc(N2CCCCS2(=O)=O)cc1 [SLT]

>  <Ki (nM)>
405

$$$$
>  <compound>
NS(=O)(=O)Cc1noc2ccccc12 [ZNS]

>  <Ki (nM)>
923

$$$$
>  <compound>
NS(=O)(=O)c1ccc(S(=O)(=O)Nc2cccc3c(Cl)c[nH]c23)cc1 [IND]

>  <Ki (nM)>
369

$$$$
